Where do these numbers come from? They come from ChEMBL document CHEMBL2331213.

- System: Staphylococcus aureus
- experimental_details: Antibacterial activity against methicillin-resistant Staphylococcus aureus ATCC BAA-44 assessed as reduction of oxacillin MIC at 25% MIC by broth microdilution method relative to oxacillin-treated control
- Assay type: functional
Entries and their fold change (FC) values follow.
Lab note: jot down the number only; don't add units.

structure_as_smiles=CCCCCc1ccc(C(=O)NCCn2cc(CCCCCc3cn(C4CCCCC4)c(N)n3)nn2)cc1.Cl value_measured=2

stdin: Fill blank: measured fold change (FC) of the compound "CCCCCc1ccc(C(=O)NCCn2cc(CCCCCc3cn(CC(C)C)c(N)n3)nn2)cc1.Cl" is ____.
stdout: 4
